Answer each item with its documented abundance fitness.
B1: Zinc finger homeobox protein 3, residues 2147 to 2202; numbered along this chain, Q15911 (parent)
chain: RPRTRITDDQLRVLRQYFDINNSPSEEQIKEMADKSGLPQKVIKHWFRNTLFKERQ

- Variants of: B1
- assay-info: abundance fitness (aPCA) (normalised: wild type 0, dead -1); higher = more abundant; growth selection in yeast, the domain comes from the species named
- setup-conditions: Homo sapiens
Give bare numbers.

Some entries whose results are on file:
What value of measured abundance fitness is listed for RPRTRITDDQLRVLRQYFDINNSPSEEQIKEMADKSGLPQKVIKHWFRNLLFKERQ [T50L] ?
-0.17

Requested field: abundance fitness. Item: RPRTRITDDQLRVLRHYFDINNSPSEEQIKEMADKSGLPQKVIKHWFRNTLFKERQ [Q16H]
-0.101

Which measured abundance fitness value corresponds to RPRTRITDDQLRVMRQYFDINNSPSEEQIKEMADKSGLPQKVIKHWFRNTLFKERQ [L14M] ?
0.058

Fill in: abundance fitness of RPRYRITDDQLRVLRQYFDINNSPSEEQIKEMADKSGLPQKVIKHWFRNTLFKERQ [T4Y] is ___
-0.005

Fill in the blank: the reported abundance fitness of RPRTRITDDQLRVLRQTFDINNSPSEEQIKEMADKSGLPQKVIKHWFRNTLFKERQ [Y17T] is ____.
-0.369

abundance fitness for RPRTRITDDQLRVRRQYFDINNSPSEEQIKEMADKSGLPQKVIKHWFRNTLFKERQ [L14R] ?
-0.982

I have this variant here, RPRTRITDDQLRVLRQYFDINNSPSEEQIKEMADKSALPQKVIKHWFRNTLFKERQ [G37A] , and I need its recorded abundance fitness.
-0.176

Would you kindly share the measured abundance fitness for RPRTRITDDQLRVLRQYFDIINSPSEEQIKEMADKSGLPQKVIKHWFRNTLFKERQ [N21I] ?
-0.276

Could you share which abundance fitness value was measured for RPRTRITDDQLRVLRQYFDIQNSPSEEQIKEMADKSGLPQKVIKHWFRNTLFKERQ [N21Q] ?
-0.105

Quick check: abundance fitness of RQRTRITDDQLRVLRQYFDINNSPSEEQIKEMADKSGLPQKVIKHWFRNTLFKERQ [P2Q] ?
0.215

Dear colleague, could you send me abundance fitness for each of the items below? Thanks.
1. RPRTRITDDQLRVLRQYFDINNSPQEEQIKEMADKSGLPQKVIKHWFRNTLFKERQ [S25Q]
2. RPRTRITDDQLRVLRQYFDINNSPSEEQIKEMADKSGLPQKAIKHWFRNTLFKERQ [V42A]
3. RPRTRITDDQLRVLRQYFDINNSPSEEQIKEMADKSGLPQKVIKPWFRNTLFKERQ [H45P]
4. RPRTRITDDQLRVLRQYFDINNSPSEEQIKEMAPKSGLPQKVIKHWFRNTLFKERQ [D34P]
5. RPRTRITDDQLRVLRQYFDINNSPSEEQIKEMADKSGLPQKVIKCWFRNTLFKERQ [H45C]
6. RPRTRITDDQLRVLRQYFDINNSPSEEQIKEMADKSGLPQMVIKHWFRNTLFKERQ [K41M]

1: -0.223; 2: -0.098; 3: -0.377; 4: -0.582; 5: -0.194; 6: -0.011

For each of the variants below, state abundance fitness.
1. RPRTRITDDQLRVLRQYKDINNSPSEEQIKEMADKSGLPQKVIKHWFRNTLFKERQ [F18K]
2. RPRTRITDDQLRVLRQYFDINNSPSEEQIKEMADPSGLPQKVIKHWFRNTLFKERQ [K35P]
3. RPRTRITDDQLRVLRQYFDINNSPSEEQIKEMADKSGLPQKVIKHWFRNTLFHERQ [K53H]
4. RPRTRITDDQLRALRQYFDINNSPSEEQIKEMADKSGLPQKVIKHWFRNTLFKERQ [V13A]
5. RPRTRNTDDQLRVLRQYFDINNSPSEEQIKEMADKSGLPQKVIKHWFRNTLFKERQ [I6N]
6. RPRTRITDDQLRVLRQYFDINNSPSEEQIKENADKSGLPQKVIKHWFRNTLFKERQ [M32N]

1: -0.039; 2: -0.998; 3: -0.07; 4: -0.22; 5: -0.401; 6: -1.08

For each of the variants below, note its abundance fitness.
1. RPRTRITDDQLRVLRQYFDINNSPSEEQIKEMADKSFLPQKVIKHWFRNTLFKERQ [G37F]
2. RPRTRITDDQLRVLREYFDINNSPSEEQIKEMADKSGLPQKVIKHWFRNTLFKERQ [Q16E]
3. RPRTRITDDQLRVLRQYFDINNSPSEEQIKEMADKSGLPQKVIKHWFRNTLKKERQ [F52K]
4. RPRTRITDDQLRVLRQYWDINNSPSEEQIKEMADKSGLPQKVIKHWFRNTLFKERQ [F18W]
5. RPRTRITDDQLRVLRQYFDENNSPSEEQIKEMADKSGLPQKVIKHWFRNTLFKERQ [I20E]
6. RCRTRITDDQLRVLRQYFDINNSPSEEQIKEMADKSGLPQKVIKHWFRNTLFKERQ [P2C]
7. RPRTRITIDQLRVLRQYFDINNSPSEEQIKEMADKSGLPQKVIKHWFRNTLFKERQ [D8I]

1: -0.504; 2: -0.045; 3: 0.185; 4: 0.022; 5: -0.228; 6: -0.608; 7: -0.122

Please give abundance fitness for each item listed below.
1. RPRTRITDDQLRVLRQYFDINNSPSEEQIKEMADKSGLPQKVIKHWFRNTLFDERQ [K53D]
2. RPRTRITDDQLRVLRQYFDINSSPSEEQIKEMADKSGLPQKVIKHWFRNTLFKERQ [N22S]

-0.18
0.001

Can you give me abundance fitness for all of these, one by one?
1. RPRTRITDDQLRVLRQYFDIENSPSEEQIKEMADKSGLPQKVIKHWFRNTLFKERQ [N21E]
2. RPLTRITDDQLRVLRQYFDINNSPSEEQIKEMADKSGLPQKVIKHWFRNTLFKERQ [R3L]
3. RPRTRITDDQLRVLRQYFDINNSPSEEQIKEMADKSGLPQKVIKHTFRNTLFKERQ [W46T]
4. RPRTRITDDQLRVLRQYFDINNSPSEEQIKEMADKSGLPQKVIKHWFRNTLFKIRQ [E54I]

-0.005
-0.014
-0.555
0.235

Give abundance fitness for each of the items listed below.
1. RPRTRITDDQLRVLRQYFDINNSPSEEQIKEMADKSGLPQKVIKHWIRNTLFKERQ [F47I]
2. RPRTRITDDQLRVLRQYFDINNSPSEEQIKEMADKNGLPQKVIKHWFRNTLFKERQ [S36N]
3. RPRTRITDDQLRVLRIYFDINNSPSEEQIKEMADKSGLPQKVIKHWFRNTLFKERQ [Q16I]
4. RPRTRITDDQLSVLRQYFDINNSPSEEQIKEMADKSGLPQKVIKHWFRNTLFKERQ [R12S]
5. RPRTRITDDQLRVLRQYFDINNSPSEEQIKEMADKSGLPQKVIKLWFRNTLFKERQ [H45L]
6. RPRTRITDDQLRVLRQYFDINNSPSEEQIKEMADKSGLPQKVIYHWFRNTLFKERQ [K44Y]
7. RPRTRITDDQLRVLRQYFDINNSPSEEQIKEMADKSGLVQKVIKHWFRNTLFKERQ [P39V]

1: -0.265; 2: 0.018; 3: -0.469; 4: 0.018; 5: -0.032; 6: -0.354; 7: -0.119

Please give abundance fitness, item by item, for the list that follows.
1. RPRTRITDDQLRVLRQYFDINNSPSEEQIKEMAGKSGLPQKVIKHWFRNTLFKERQ [D34G]
2. RPRTRITDDQLRVLRQYFDINNSPSEEQIKEMADKSRLPQKVIKHWFRNTLFKERQ [G37R]

1. -0.011
2. -0.071

List the reported abundance fitness of each variant below.
1. RPRTRITDDQLRVLRQYFDINNSPPEEQIKEMADKSGLPQKVIKHWFRNTLFKERQ [S25P]
2. RPRTRITDDQLRVLRQYFDINNSPSEEQIKEVADKSGLPQKVIKHWFRNTLFKERQ [M32V]

[-0.191, -0.164]
